Biological target: SARS-CoV-2 3CLpro (Severe acute respiratory syndrome coronavirus 2)
Test: biochemical
Assay type: biochemical
Parameters: unit not given here
Details: sheet LOPAC_screen_w_protease; primary screen of LOPAC1280 at 5 µM with protease; replicate 1
// values below are reported Replicate_1
The reply should be a number, written without any unit.

Worked cases, answers included:
Please report the recorded Replicate_1 for Nc1ccc(CCNc2ncnc3c2ncn3[C@@H]2O[C@H](CO)[C@@H](O)[C@H]2O)cc1 [N6-2-(4-Aminophenyl)ethyladenosine] . 3.6817

Next compound up: "CCCN(CCC)CCc1c[nH]c2ccc(C(N)=O)cc12.O=C(O)/C=C\C(=O)O" 3.371

Next compound up: NC(Cc1ccc(Cl)cc1)C(=O)O (racemic) [(±)-p-Chlorophenylalanine] 1.596

Next compound up: Nc1cc(=O)[nH]c(N)n1 [2,6-Diamino-4-pyrimidinone] 3.441

Next compound up: "COC(=O)[C@@H](N)CCCN=C(N)N[N+](=O)[O-].Cl" 2.366

Continuing:
Please report the recorded Replicate_1 for Cn1cnc2c(NC3CCCC3)ncnc21 [N6-Cyclopentyl-9-methyladenine] . 3.176

Next compound up: NC1(C(=O)O)CCc2cc(C(=O)O)ccc21 (stereo not drawn) [AIDA] 3.929

Next compound up: Cl.N[C@@H](Cc1cnc[nH]1)C(=O)O [L-Histidine hydrochloride] 4.566

Next compound up: CCCC(=O)NCCc1c2n(c3ccc(OC)cc13)Cc1ccccc1-2 [IIK7] 5.727

Next compound up: N#C/C(=C\c1ccc(O)c(O)c1)C(=O)N1CCc2ccccc21 [Tyrphostin AG 528] 3.707

Next compound up: C/C(=C\c1ccc(C(=O)O)cc1)c1ccc2c(c1)C(C)(C)CCC2(C)C [TTNPB] 5.544

Next compound up: CCCCCCC(C(C)O)n1cnc2c(N)ncnc21.Cl (stereo not drawn) 4.751

Next compound up: COc1nc(C)nc(Cl)c1NC1=NCCN1.Cl [Moxonidine hydrochloride] 2.314

Next compound up: CCNC(=O)[C@H]1O[C@@H](n2cnc3c(N)nc(NCCc4ccc(CCC(=O)O)cc4)nc32)[C@H](O)[C@@H]1O.Cl [CGS-21680 hydrochloride] 4.89

Next compound up: Cl.NCC(O)c1ccc(O)cc1 (racemic) [(±)-Octopamine hydrochloride] 4.835

Next compound up: NC(CCCCCP(=O)(O)O)C(=O)O (racemic) [(±)-2-Amino-7-phosphonoheptanoic acid] 3.653

Next compound up: CCCCN1CCC(n2c(=O)[nH]c3ccccc32)CC1.O=C(O)C(=O)O [NS 521 oxalate] 2.6467

Next compound up: CNC(=O)[C@H]1O[C@@H](n2cnc3c(N)ncnc32)[C@H](O)[C@@H]1O [5'-N-Methyl carboxamidoadenosine] 3.632

###

// values below are reported Ratio (A/B)
Target: SARS-CoV-2 3CLpro (Severe acute respiratory syndrome coronavirus 2)
Assay: biochemical
Assay type: biochemical
Settings: EC50 with Triton X-100 / EC50 without Triton X-100; ratio greater than 2 suggests aggregation-based inhibitor
The reply should be a number, written without any unit.

Please report the recorded Ratio (A/B) for CN1CCc2cc(O)cc3c2[C@H]1Cc1ccc(O)c(O)c1-3 [R(−)-2-Hydroxyapomorphine] . 1.1

###

Target: SARS-CoV-2 3CLpro (Severe acute respiratory syndrome coronavirus 2)
Assay: biochemical
Format: biochemical
Details: 4 h, sheet LOPAC_screen_w_protease; primary screen of LOPAC1280 at 5 µM with protease; replicate 1; read-out: Replicate_1
Structures can show the parent of a compound that is named as a salt.
# label = Met if inhibition at 5 µM >= 3% else Not met

A selection of reference data follows.
Tell me whether inhibition at 5 µM is at least 3% here: "Cc1ccc(=O)n(-c2ccccc2)c1" Not met

Next molecule up: COc1cc(C(=O)OCCCN2CCCN(CCCOC(=O)c3cc(OC)c(OC)c(OC)c3)CC2)cc(OC)c1OC [Dilazep hydrochloride] Not met

Continuing:
Tell me whether inhibition at 5 µM is at least 3% here: "CC1=C(/C=C/C(C)=C/C=C/C(C)=C/C=C/C=C(C)/C=C/C=C(C)/C=C/C2=C(C)C(=O)[C@@H](O)CC2(C)C)C(C)(C)C[C@H](O)C1=O" Not met

Next molecule up: "CCn1cc(C(=O)O)c(=O)c2cc3c(cc21)OCO3" Met

Next molecule up: "N#C/C(=C\c1ccc(O)c(O)c1)C(=O)Nc1ccccc1" Met

###

// values below are reported Ratio (A/B)
Target: SARS-CoV-2 3CLpro (Severe acute respiratory syndrome coronavirus 2, UniProt P0DTD1)
Assay: biochemical
Type: biochemical
The reply should be a number, written without any unit.

Please report the recorded Ratio (A/B) for CC(Cc1ccc(O)c(O)c1)C(C)Cc1ccc(O)c(O)c1 (stereo not shown) [Nordihydroguaiaretic acid] . 1.3

Continuing:
Please report the recorded Ratio (A/B) for Oc1cc2c(cc1O)CN(C(=S)NCCc1ccc(Cl)cc1)CCC2 [Capsazepine, reference compound] . 1.4

Next compound up: NC1CCc2cc(O)c(O)cc2C1 (stereo not shown) 1.1

###

Target: SARS-CoV-2 3CLpro (Severe acute respiratory syndrome coronavirus 2, UniProt P0DTD1)
Experiment: biochemical
Format: biochemical
Parameters: unit not given here
Details: sheet LOPAC_screen_w_protease; primary screen with protease, compound at 5 µM; replicate 2
Structures can show the parent of a compound that is named as a salt.
assay endpoint: Replicate_2
The reply should be a number, written without any unit.

Please report the recorded Replicate_2 for "CNc1ncnc2c1ncn2[C@@H]1O[C@H](CO)[C@@H](O)[C@H]1O" . 2.964

Next compound up: "C[C@@H](NC(=O)/C(C#N)=C/c1ccc(O)c(O)c1)c1ccccc1" 1.771

Next compound up: "N#Cc1c(-c2ccccc2)no[n+]1[O-]" 2.497

Continuing:
Please report the recorded Replicate_2 for Cn1ccc2cc3c(cc21)CCN3C(=O)Nc1cccnc1 [SB 206553 hydrochloride] . 1.733

Next compound up: COc1ccccc1N1CCN(CCN2C(=O)CC3(CCCC3)CC2=O)CC1.Cl.Cl [BMY 7378 dihydrochloride] 3.53

Next compound up: OC[C@H]1O[C@@H](n2cnc3c(N[C@H]4CC5CCC4C5)ncnc32)[C@H](O)[C@@H]1O (stereo partly drawn) [(S)-ENBA] 1.041

Next compound up: "CCCn1c(=O)c2c(ncn2C)n(CCC)c1=O" 2.572

Next compound up: Cl.NCC(O)c1cc(O)c(O)cc1F (centres unmarked) [6-Fluoronorepinephrine hydrochloride] 3.1667

###

Molecular target: SARS-CoV-2 3CLpro (Severe acute respiratory syndrome coronavirus 2, UniProt P0DTD1)
Assay: biochemical
Type: biochemical
Settings: 4 h, LOPAC1280 primary screen with protease, 5 µM compound, replicate 1; read-out: Replicate_1 (LOPAC_screen_w_protease)
Structures can show the parent of a compound that is named as a salt.
assay endpoint: inhibition at 5 µM (%)
Only the number, expressed in %, is required.

Worked cases, answers included:
Please report the recorded inhibition at 5 µM for CO[C@@]1(NC(=O)CSCC#N)C(=O)N2C(C(=O)O)=C(CSc3nnnn3C)CS[C@@H]21 [Cefmetazole sodium] . 1.13

Next molecule up: "O=C(O)C1CCNCC1" 4.55

Next molecule up: "Nc1nc(N)c2nc(CNc3ccc(C(=O)N[C@@H](CCC(=O)O)C(=O)O)cc3)cnc2n1" 2.12

Next molecule up: O=C(O)C1=CCNCC1 [Isoguvacine hydrochloride] 2.64

Next molecule up: "CCCCC[C@H](CC(=O)NO)C(=O)N[C@H](C(=O)N1CCC[C@H]1CO)C(C)C" 1.42

Continuing:
Please report the recorded inhibition at 5 µM for NC(=NCc1ccccc1)NC(=O)c1nc(Cl)c(N)nc1N [Benzamil hydrochloride] . 1.66

Next molecule up: "O=P(O)(O)C(Cl)(Cl)P(=O)(O)O" 2.04

Next molecule up: "NCCS(=O)(=O)O" 2.66

Next molecule up: "CCn1nc(C(=O)O)c(=O)c2cc3c(cc21)OCO3" -0.0118

Next molecule up: CCN1C(=O)C=CC1=O [N-Ethylmaleimide] 5.02

###

// values below are reported inhibition at 5 µM
Biological target: SARS-CoV-2 3CLpro (Severe acute respiratory syndrome coronavirus 2, UniProt P0DTD1)
Assay: biochemical
Format: biochemical
Settings: 4 h, sheet LOPAC_screen_w_protease; LOPAC1280 at 5 µM; mean of two replicates; read-out: mean
Where a name gives a salt, the structure may show the parent alone.
Only the number, expressed in %, is required.

Please report the recorded inhibition at 5 µM for C[N+](C)(C)CCOC(=O)CCC(=O)OCC[N+](C)(C)C [Succinylcholine chloride] . 1.08

Next molecule up: CN(C)CCOC(=O)COc1ccc(Cl)cc1 [Centrophenoxine hydrochloride] 1.27

Please look at the following molecule next.
Please report the recorded inhibition at 5 µM for CCOC(=O)C1=C[C@]2(CC)CCCN3CCc4c(n1c1ccccc41)[C@@H]32 [Vinpocetine] . 0.949
